B1: PTPN9 (parent)
chain: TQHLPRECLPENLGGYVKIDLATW

Variants of: B1
Test: protein stability index of a GFP-peptide fusion (GPS, HEK-293T) (PSI 1-6); higher = more stable;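 further: lentivirally expressed fusions sorted by FACS into six bins by GFP to DsRed ratio, PSI derived from sequencing read proportions per bin multiplied by bin number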
Details: c terminus: a fixed tail appended
Metric name: protein stability index
Please give only the number in your answer, with no unit.

**Query** Which value of protein stability index has been reported for L9Q in the records?
**Result** 2.01

**Query** // repeat for T23P and report
**Result** 1.99

**Query** And for P10F ?
**Result** 1.97
